# study_system: human recombinant adrenergic α2A receptor (Homo sapiens)
# Construct: expressed in transfected cells; host or cells: insect Sf9 cells
# Sequence (P08913 whole entry): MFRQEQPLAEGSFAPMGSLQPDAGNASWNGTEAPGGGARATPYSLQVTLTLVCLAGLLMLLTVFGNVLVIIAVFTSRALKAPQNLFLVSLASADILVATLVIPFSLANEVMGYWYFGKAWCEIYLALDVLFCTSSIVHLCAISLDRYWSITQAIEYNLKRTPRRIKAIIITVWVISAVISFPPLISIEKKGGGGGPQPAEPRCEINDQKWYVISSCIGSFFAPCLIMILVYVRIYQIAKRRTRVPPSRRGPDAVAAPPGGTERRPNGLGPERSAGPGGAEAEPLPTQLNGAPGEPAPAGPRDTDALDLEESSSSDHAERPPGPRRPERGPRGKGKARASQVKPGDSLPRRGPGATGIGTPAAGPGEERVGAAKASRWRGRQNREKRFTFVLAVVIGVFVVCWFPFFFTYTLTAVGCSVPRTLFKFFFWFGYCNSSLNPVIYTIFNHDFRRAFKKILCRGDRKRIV
# experiment: Radioligand binding, adrenergic α2A ([3H]MK-912)
# protocol_conditions: read-out: Percentage inhibition of ligand binding, Adrenergic α2A (0.1 μM), compound at 0.1 μM; [3H]MK-912; repeat datapoints each shown
# Protocol: To evaluate in radioligand binding assays the activity of compounds of the invention, human recombinant adrenergic α2A receptor expressed in insect Sf9 cells (Uhlen, S. et al, J. Pharmacol. Exp. Ther. 271:1558, 1994) in a modified Tris-HCl buffer (50 mM Tris-HCl, pH 7.4, 12.5 mM MgCl2, 2 mM EDTA) was used. […] Receptor proteins were filtered and washed, the filters were then counted to determine [^3H]MK-912 specifically bound. […]
reported_property: inhibition at 0.1 µM (%)

1. Cc1ccc2c(c1)c1c(n2CC(O)c2ncc[nH]2)CCN2CCCC12 (stereo not drawn) = 7
2. Cc1cnc2c(c1)c1c(n2CCc2ccc(C(F)(F)F)nc2)CCN(C)C1 = -4

[1] CN1CCc2c(c3cc(Cl)ccc3n2CCC2CCCCC2)C1
[2] Cc1ccc2c(c1)c1c(n2CC(c2ccncc2)N(C)C)CCN(C)C1 (single isomer, unassigned) [150a]
[3] Cc1ccc(CCn2c3c(c4cc(C)ccc42)CN(C)CC3)cc1
Write the entries in order, lowest recorded inhibition at 0.1 µM first. A ranking is expressed here by listing the labels in the requested order.
2, 1, 3
(2: 16%, 1: 66%, 3: 95%)

[A] Cc1ccc2c(c1)c1c(n2CCc2ccc(C)nc2)CCN2CCCC12 (stereo not drawn) [197a]
[B] CNC(=O)c1ccc(/C(C)=C/n2c3c(c4cc(C)ccc42)CN(C)CC3)cn1
// pick larger inhibition at 0.1 µM from pair: A vs B Which one? Tell me its label.
A

[P] Cc1ccc2c(c1)c1c(n2CC(C)(F)c2cccnc2)CCN(C)C1 (stereo not drawn)
[Q] CCN1CCc2c(c3cc(C)ccc3n2CCc2ccc(C)cc2)C1
[R] Cc1ccc2c(c1)c1c(n2CC(c2ccncc2)N(C)C)CCN(C)C1 (stereo not drawn) [150b]
[S] Cc1ccc2c(c1)c1c(n2CC(N=[N+]=[N-])c2ccc(F)cc2F)CCN(C)CC1 (single isomer, unassigned) [V-21a]
// ranking: key=inhibition at 0.1 µM, reverse=True A ranking is expressed here by listing the labels in the requested order.
Q, S, P, R

###

# study_system: rat adrenergic α1B receptor (Rattus norvegicus)
# Construct: rat adrenergic α1B receptor obtained from Wistar Rat liver; from tissue; host or cells: Wistar rat liver
# experiment: Radioligand binding, adrenergic α1B ([3H]Prazosin)
# protocol_conditions: compound at 0.1 μM; [3H]Prazosin; repeat datapoints each shown; 0.1 µM
reported_property: Percentage inhibition of ligand binding, Adrenergic α1B (0.1 μM) (%)

Here are 2 compounds together with their reported answers.
1. CN1CCc2c(c3cc(Cl)ccc3n2CC(C)(O)c2ccc(C(F)(F)F)nc2)C1 (single isomer, unassigned) [143a] = 43
2. Cc1ccc2c(c1)c1c(n2CC(N)c2ccncc2)CCN(C)CC1 (centres unmarked) [compound 154] = 86

[I] Cc1ccc2c(c1)c1c(n2CC(O)c2ccncc2C)CCN(C)C1 (single isomer, unassigned) [133b]
[II] Cc1ccc2c(c1)c1c(n2CC(O)c2ccc(F)cc2F)CCN(C)CC1 (single isomer, unassigned) [172b]
[III] Cc1ccc2c(c1)c1c(n2CC(c2ccncc2)N2CCCC2)CCN(C)C1 (single isomer, unassigned) [152b]
Write the entries in order, lowest recorded Percentage inhibition of ligand binding, Adrenergic α1B (0.1 μM) first. A ranking is expressed here by listing the labels in the requested order.
III, I, II

###

# study_system: human recombinant adrenergic α2A receptor (Homo sapiens)
# Construct: expressed in transfected cells; host or cells: insect Sf9 cells
# experiment: Radioligand binding, adrenergic α2A ([3H]MK-912)
# protocol_conditions: compound at 0.1 μM; [3H]MK-912; repeat assays, each datapoint shown; read-out: Percentage inhibition of ligand binding, Adrenergic α2A
reported_property: inhibition at 0.1 µM (%)

Here are 5 compounds together with their reported answers.
1. CN1CCc2c(c3cc(Cl)ccc3n2CC(C)(O)c2ccncc2)C1 (stereo not drawn) [compound 1] = 6
2. Cc1ccc2c(c1)c1c(n2CC(O)c2ccc(F)cc2)CCN(C)C1 (single isomer, unassigned) [30b] = 74
3. Cc1ccc2c(c1)c1c(n2CC(O)c2ccncc2)C(C)(C)CN(C)C1 (stereo not drawn) [compound 71] = 11
4. Cc1ccc2c(c1)c1c(n2CC(O)c2cc[n+]([O-])cc2)CCN(C)C1 (stereo not drawn) [69a] = 11
5. COc1ccc(C(O)Cn2c3c(c4cc(C)ccc42)CCN(C)C3)cc1 (single isomer, unassigned) [20a] = 29

[a] CN1CCc2c(c3ccc(Cl)cc3n2CC(O)c2ccncc2)C1 (single isomer, unassigned) [53a]
[b] CN1CCc2c(c3cccc(Cl)c3n2CC(C)(O)c2cccnc2)C1 (single isomer, unassigned) [57a]
[c] Cc1ccc2c(c1)c1c(n2CCc2ccc(CO)nc2)CCN(C)C1 [compound 91]
Write the entries in order, lowest recorded inhibition at 0.1 µM first. A ranking is expressed here by listing the labels in the requested order.
c, a, b
(c: 5%, a: 10%, b: 22%)

###

# study_system: rat adrenergic α1B receptor (Rattus norvegicus, UniProt P15823)
# Construct: rat adrenergic α1B receptor obtained from Wistar Rat liver; from tissue; host or cells: Wistar rat liver
# Sequence (P15823 1-515): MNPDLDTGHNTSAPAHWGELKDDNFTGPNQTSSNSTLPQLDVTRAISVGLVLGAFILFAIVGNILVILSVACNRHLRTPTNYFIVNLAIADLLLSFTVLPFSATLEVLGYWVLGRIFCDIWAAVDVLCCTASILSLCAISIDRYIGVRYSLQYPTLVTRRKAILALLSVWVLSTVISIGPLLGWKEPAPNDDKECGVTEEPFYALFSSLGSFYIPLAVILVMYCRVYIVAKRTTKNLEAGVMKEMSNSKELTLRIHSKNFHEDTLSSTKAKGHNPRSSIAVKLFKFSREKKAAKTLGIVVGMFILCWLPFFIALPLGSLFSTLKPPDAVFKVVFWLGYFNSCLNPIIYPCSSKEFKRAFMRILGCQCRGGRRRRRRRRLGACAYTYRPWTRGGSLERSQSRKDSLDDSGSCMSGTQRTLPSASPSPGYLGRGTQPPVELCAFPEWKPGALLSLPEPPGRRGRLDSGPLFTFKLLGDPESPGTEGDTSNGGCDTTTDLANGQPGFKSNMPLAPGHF
# experiment: Radioligand binding, adrenergic α1B ([3H]Prazosin)
# protocol_conditions: 0.1 μM compound; read-out: Percentage inhibition of ligand binding, Adrenergic α1B
reported_property: inhibition at 0.1 µM (%)

Here are 5 compounds together with their reported answers.
1. Cc1ccc2c(c1)c1c(n2CC(C)(OC(=O)C(C)(C)C)c2cccnc2)CCN(C)C1 (single isomer, unassigned) [II-16b] = 32
2. Cc1ccc2c(c1)c1c(n2CC(C)(C)c2ccncc2)CCN(C)C1 = 45
3. CN1CCc2c(c3cccnc3n2CC(O)c2ccncc2)C1 (centres unmarked) = -11
4. C/C(=C/n1c2c(c3cc(C)ccc31)CN(C)CC2)c1ccc(F)cc1F = 93
5. C/C(=C/n1c2c(c3cc(C)ccc31)CN(C)CC2)c1ccc2ccccc2c1 = 65

[A] Cc1ccc(CCn2c3c(c4cc(C)ccc42)CN(C)CC3)nc1
[B] Cc1ccc2c(c1)c1c(n2C#Cc2cccc(N(C)C)c2)CCN(C)C1
[C] CN1CCc2c(c3cc(OC(F)(F)F)ccc3n2CC(O)c2ccncc2)C1 (centres unmarked)
[D] Cc1ccc2c(c1)c1c(n2C2=C(c3cccc4ccccc34)CCC2)CCN(C)C1
[E] Cc1ccc(CCn2c3c(c4c(C)ccc(C)c42)CN(C)CC3)cn1
Write the entries in order, lowest recorded inhibition at 0.1 µM first. A ranking is expressed here by listing the labels in the requested order.
E, C, D, B, A

[1] CSc1cccc(/C(C)=C/n2c3c(c4cc(C)ccc42)CN(C)CC3)c1
[2] Cc1ccc2c(c1)c1c(n2C#Cc2ccc(S(N)(=O)=O)s2)CCN(C)C1
Looking at recorded values for inhibition at 0.1 µM, does 1 or 2 come in lower? Which one? Tell me its label.
1
(1: 57%, 2: 91%)

[a] C/C(=C\n1c2c(c3cc(C)cc(C)c31)CN(C)CC2)c1ccncc1
[b] Cc1ccc2c(c1)c1c(n2CC(C)(OC(=O)c2ccncc2)c2cccnc2)CCN(C)C1 (centres unmarked)
// pick larger inhibition at 0.1 µM from pair: a vs b Which one? Tell me its label.
a

[P] C/C(=C\n1c2c(c3cc(C)ccc31)CN(C)CC2)c1ccc(Cl)c(Cl)c1
[Q] Cc1ccc2c(c1)c1c(n2C2=C(c3cnc(N(C)C)nc3)CCC2)CCN(C)C1
Looking at recorded values for inhibition at 0.1 µM, does P or Q come in lower? Which one? Tell me its label.
Q
(Q: 16%, P: 58%)

[a] COc1ccc(/C(C)=C/n2c3c(c4cc(Cl)ccc42)CCN(C)CC3)cc1
[b] CC1c2c(c3cc(Cl)ccc3n2CC(O)c2ccncc2)CCN1C (centres unmarked)
Looking at recorded values for inhibition at 0.1 µM, does a or b come in lower? Which one? Tell me its label.
b
(b: 30%, a: 82%)

[a] C/C(=C/n1c2c(c3cc(C)ccc31)CN(C)CC2)c1cnn(C)c1
[b] CC(O)(Cn1c2c(c3cc(CO)ccc31)CNCC2)c1cccnc1 (centres unmarked)
Looking at recorded values for inhibition at 0.1 µM, does a or b come in lower? Which one? Tell me its label.
b
(b: 3%, a: 75%)

[I] Cc1ccc2c(c1)c1c(n2CC(O)c2ccnc3ccccc23)CCN(C)C1 (centres unmarked)
[II] Cc1ccc(CCn2c3c(c4c(Cl)ccc(Cl)c42)CN(C)CC3)cn1
// pick larger inhibition at 0.1 µM from pair: I vs II Which one? Tell me its label.
I
